Target entity: Serine/threonine-protein kinase PLK1 (Homo sapiens) (UniProt P53350);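 also: reported value is a mean PLK1 inhibition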
Sequence (P53350 whole entry): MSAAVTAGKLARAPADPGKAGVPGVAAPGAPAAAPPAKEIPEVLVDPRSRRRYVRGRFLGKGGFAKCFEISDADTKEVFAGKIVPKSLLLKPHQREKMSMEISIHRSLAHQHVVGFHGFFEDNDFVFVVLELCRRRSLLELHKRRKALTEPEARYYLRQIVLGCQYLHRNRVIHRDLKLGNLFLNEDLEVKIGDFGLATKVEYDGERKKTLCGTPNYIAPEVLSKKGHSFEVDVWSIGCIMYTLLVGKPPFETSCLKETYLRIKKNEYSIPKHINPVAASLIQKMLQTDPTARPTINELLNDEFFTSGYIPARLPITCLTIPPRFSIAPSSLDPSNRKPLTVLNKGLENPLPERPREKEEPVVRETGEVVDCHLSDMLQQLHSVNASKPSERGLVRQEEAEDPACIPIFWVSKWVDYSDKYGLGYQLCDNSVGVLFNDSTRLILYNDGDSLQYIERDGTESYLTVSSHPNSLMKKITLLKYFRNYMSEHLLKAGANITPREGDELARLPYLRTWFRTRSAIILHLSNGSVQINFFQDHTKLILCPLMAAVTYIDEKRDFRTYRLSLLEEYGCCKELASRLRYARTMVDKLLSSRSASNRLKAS
Assay conditions: at 1 µM
Quantity: inhibition (%)
Your answer should be a plain number; it is taken to be in %.

get_value(item= `NS(=O)(=O)c1ccc(-c2ccc3c(NC(=O)C4CC4)n[nH]c3c2)cc1` , readout=inhibition) returns 2.23

get_value(item= `CCn1c(-c2nonc2N)nc2c(C#CC(C)(C)O)nc(O[C@@H](CN)c3ccccc3)cc21` , readout=inhibition) returns 0.24

get_value(item= `Fc1ccc(-c2ncn(C3CCNCC3)c2-c2ccnc(Oc3ccccc3)n2)cc1` , readout=inhibition) returns 3.09

get_value(item= `CCn1c(-c2nonc2N)nc2c(C#CC(C)(C)O)ncc(OC[C@@H]3CCCN3)c21` , readout=inhibition) returns -3.86

Let us move to another entry and its inhibition.
get_value(item= `Nc1nonc1-c1nc2cnccc2n1C1CCCCC1` , readout=inhibition) returns -0.5
